Reported Classification values for the following binders.
target: GST-DLG1 PDZ domains 1, 2 (Homo sapiens), Q12959; assay: G' assay; further: key of the grades not given here
Give just the number in A450 class; leave the unit off.

# binder, measured quantity, quantitative result
records = [
    ("LHNQASVPLEPRPLRRESEI (modifications not checked) [Kir2.1 (inwardly rect. K+ channel)]", "Classification", 2),
    ("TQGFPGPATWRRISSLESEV (modifications not checked) [NMDA Glutamate Receptor 2C (cysteine-free)]", "Classification", 5),
    ("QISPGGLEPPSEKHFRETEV (modifications not checked) [TAX]", "Classification", 5),
    ("SLKPGTVLPPPPYRHRNTVV (modifications not checked) [ErbB-4 receptor]", "Classification", 1),
    ("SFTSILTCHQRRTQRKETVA (modifications not checked) [GluR5-2 (rat)]", "Classification", 5),
]

# input binder: ESSGTQSPKRHSGSYLVTSV (modifications not checked) [APC-adenomatous polyposis coli protein] ; wanted: its Classification
5

Moving on to VPGALDYAAFSSALYGESDL (modifications not checked) [a-actinin 2]
1

Then what about the binder EALQPEPGRKRIPLTRTTTF (modifications not checked) [somatostatin receptor 4] ?
1
